Measured pKi accompanies every entry in the list below.
# assayed-target: ACE-2 (Rattus norvegicus, UniProt Q5EGZ1)
# Sequence (Q5EGZ1 18-805): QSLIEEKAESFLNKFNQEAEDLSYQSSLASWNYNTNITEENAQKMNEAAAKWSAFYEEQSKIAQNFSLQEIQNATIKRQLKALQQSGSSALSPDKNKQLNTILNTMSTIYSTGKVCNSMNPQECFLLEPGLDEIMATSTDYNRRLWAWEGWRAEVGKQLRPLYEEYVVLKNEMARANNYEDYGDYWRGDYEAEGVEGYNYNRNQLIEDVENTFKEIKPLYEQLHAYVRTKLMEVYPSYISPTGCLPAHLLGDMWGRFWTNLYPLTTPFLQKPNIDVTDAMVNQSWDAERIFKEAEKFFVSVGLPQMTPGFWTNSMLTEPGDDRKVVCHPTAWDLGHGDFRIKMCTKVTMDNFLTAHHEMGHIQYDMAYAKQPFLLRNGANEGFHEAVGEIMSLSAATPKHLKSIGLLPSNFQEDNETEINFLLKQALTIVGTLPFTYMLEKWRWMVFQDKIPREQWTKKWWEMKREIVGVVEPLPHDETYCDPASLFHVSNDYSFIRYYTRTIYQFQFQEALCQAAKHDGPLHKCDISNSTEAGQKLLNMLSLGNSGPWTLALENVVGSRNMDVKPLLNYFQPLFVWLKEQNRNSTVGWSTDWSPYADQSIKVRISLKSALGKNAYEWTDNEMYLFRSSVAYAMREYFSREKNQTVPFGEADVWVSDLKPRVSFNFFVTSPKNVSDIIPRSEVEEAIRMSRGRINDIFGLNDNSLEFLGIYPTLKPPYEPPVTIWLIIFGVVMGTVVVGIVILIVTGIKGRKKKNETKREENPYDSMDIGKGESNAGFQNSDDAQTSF
# protocol-summary: ACE-2 Competitive Substrate Assay, rat ACE-2
# Assay type: biochemical
# condition-info: Ki class; compounds tested in 5% DMSO, 12 concentrations
pKi: −log10 of the molar value.

[in] Fill in reported pKi for this entry: CC(C)CC(N[C@H](Cc1cccs1)C(=O)O)C(=O)O (stereo in doubt) [CP]
[out] < 6.30

[in] Fill in reported pKi for this entry: CC(C)CC(N[C@@H](Cc1c[nH]cn1)C(N)=O)C(=O)O (single isomer, unassigned) [EV]
[out] < 6.30

[in] Fill in reported pKi for this entry: CC(C)CC(N[C@@H](Cc1cncn1Cc1ccc(C(F)(F)F)cc1)C(=O)O)C(=O)O (some centres unmarked) [GJ]
[out] < 6.30

[in] Fill in reported pKi for this entry: CC(C)CC(N[C@H](Cc1c[nH]cn1)C(=O)O)C(=O)O (single isomer, unassigned) [BI]
[out] < 6.30

[in] Fill in reported pKi for this entry: CC(C)(C)C[C@H](N[C@@H](CCc1ccccc1)C(=O)O)C(=O)O [CK]
[out] 6.30 to 7.00

[in] Fill in reported pKi for this entry: CC(C)CC(N[C@@H](Cc1cncn1Cc1ccc(C(F)(F)F)cc1)C(=O)O)C(=O)O (some centres unmarked) [GI]
[out] > 7.00

[in] Fill in reported pKi for this entry: CC(C)CC(N[C@H](Cc1ccccn1)C(=O)O)C(=O)O (stereo in doubt) [BZ]
[out] < 6.30

[in] Fill in reported pKi for this entry: CCCC(N[C@@H](Cc1c[nH]cn1)C(=O)O)C(=O)O (single isomer, unassigned) [DK]
[out] < 6.30

Data credit: patent US7045532B2
